Test system: behaviorally-diagnosed psychiatric conditions (DSM categories)
Design: species or system human
EXPERIMENTAL PARAMETERS: in vivo
PROPERTY MEASURED: use code of agent in 311 Depressive Disorder NOS

compound="COCCc1ccc(OCC(O)CNC(C)C)cc1 (centres unmarked) [METOPOLOL]" value_observed=N
compound="NNCCc1ccccc1 [PHENALZINE]" value_observed=N
compound="N[C@@H]1C[C@H]1c1ccccc1 [PARNATE, reference compound]" value_observed=N
compound="CC(NC(C)(C)C)C(=O)c1cccc(Cl)c1 (centres unmarked) [BUPROPRION (REGULAR TABS)]" value_observed=N
compound="CC(NC(C)(C)C)C(=O)c1cccc(Cl)c1 (centres unmarked) [BUPROPRION (LONG ACTING)]" value_observed=N

Reference source: patent US7962204B2
